# STUDY SYSTEM: GalNAc(b1-4)GlcNAc(b1-2)Man(a1-3)[GalNAc(b1-4)GlcNAc(b1-2)Man(a1-6)]Man(b1-4)GlcNAc(b1-4)GlcNAc
# ASSAY PROCEDURE: glycan array binding signal (z-score within array); higher = stronger binding
# SETTINGS: glycan notation: IUPAC condensed, linker removed
This excerpt belongs to a sample that is enriched for the strongest signals.
OBSERVABLE: glycan array binding signal (z-score)

{"BINDER": "CFEM-PPm (Pichia pastoris), F2QPV1 (protein) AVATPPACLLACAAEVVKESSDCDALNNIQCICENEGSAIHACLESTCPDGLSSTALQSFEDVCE", "MEASUREMENT": 0.149}
{"BINDER": "Gal 8 (Mus musculus), Q9JL15 (protein) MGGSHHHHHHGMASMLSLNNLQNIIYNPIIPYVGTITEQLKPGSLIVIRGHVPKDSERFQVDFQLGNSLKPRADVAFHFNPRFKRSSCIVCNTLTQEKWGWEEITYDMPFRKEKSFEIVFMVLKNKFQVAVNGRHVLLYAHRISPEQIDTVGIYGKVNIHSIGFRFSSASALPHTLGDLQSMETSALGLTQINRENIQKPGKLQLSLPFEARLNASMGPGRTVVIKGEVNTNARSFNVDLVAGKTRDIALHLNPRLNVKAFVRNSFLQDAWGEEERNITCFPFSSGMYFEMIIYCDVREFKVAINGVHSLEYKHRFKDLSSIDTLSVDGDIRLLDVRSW", "MEASUREMENT": -0.195}
{"BINDER": "Sebin2 (Coprinopsis cinerea), A8PE78 (protein) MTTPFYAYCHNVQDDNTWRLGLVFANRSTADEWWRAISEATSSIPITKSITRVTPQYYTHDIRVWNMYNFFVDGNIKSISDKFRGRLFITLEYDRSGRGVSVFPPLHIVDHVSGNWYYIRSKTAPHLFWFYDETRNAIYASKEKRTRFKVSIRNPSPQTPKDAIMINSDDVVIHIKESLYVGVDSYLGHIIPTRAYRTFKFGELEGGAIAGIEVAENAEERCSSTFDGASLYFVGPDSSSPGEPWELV", "MEASUREMENT": -0.25}
